Molecular target: Recombinant human his-tagged IGF 1R extracellular domain protein (human) (UniProt P08069)
Assay: SPR, captured IgG, IGF-1R ECD-his analyte, dissociation pH 6
Reported metric: pKd
Units for pKd: none; it is -log10 of a concentration expressed in mol/L.

Recorded results for 2 binders are shown here.
>  <Binder>
VRDN-02513 (antibody, V domains shown) VH: EVQLVQSGGGLVKPGGSLRLSCAASGFTFSSFAMHWVRQAPGKGLEWISVIDTRHATYYADSVKGRFTISRDNAKNSLYLQMNSLRAEDTAVYYCARLGNFYYGMDVWGQGTTVTVSS VL: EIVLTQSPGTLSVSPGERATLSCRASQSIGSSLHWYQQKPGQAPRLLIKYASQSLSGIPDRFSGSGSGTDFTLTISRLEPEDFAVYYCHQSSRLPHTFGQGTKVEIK

>  <pKd>
10.49

$$$$
>  <Binder>
VRDN-02542 (antibody, V domains shown) VH: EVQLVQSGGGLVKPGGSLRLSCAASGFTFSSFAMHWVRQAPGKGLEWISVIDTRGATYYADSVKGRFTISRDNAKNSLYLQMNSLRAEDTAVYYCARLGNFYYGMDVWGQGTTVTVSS VL: EIVLTQSPGTLSVSPGERATLSCRASQSIGSSLHWYQQKPGQAPRLLIKYASHSLSGIPDRFSGSGSGTDFTLTISRLEPEDFAVYYCHQSSRLPHTFGQGTKVEIK

>  <pKd>
10.41

$$$$

Qu. Form field: reported pKd of VRDN-02528 (antibody, V domains shown) VH: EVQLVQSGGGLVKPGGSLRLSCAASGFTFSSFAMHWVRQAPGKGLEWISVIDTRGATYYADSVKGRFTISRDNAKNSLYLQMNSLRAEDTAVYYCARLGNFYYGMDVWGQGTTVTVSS VL: EIVLTQSPGTLSVSPGERATLSCHASQSIGSSLHWYQQKPGQAPRLLIKYASQSLSGIPDRFSGSGSGTDFTLTISRLEPEDFAVYYCHQSSRLPHTFGQGTKVEIK
Ans. 10.61
